# credit: patent US11389455B2

- TESTED SYSTEM: Prototype Foamy Virus (PFV) integrase (Human spumaretrovirus, UniProt P14350)
- PROTOCOL: Specificity: single end and concerted integration in vitro, PFV integrase
- Assay type: biochemical
- MEASUREMENT SETUP: Table 6; read-out: PFV Single End IC50
RECORDED ENDPOINT: IC50

Sample records with IC50:
• Cc1nnc(C(=O)NC(C)(C)c2nc(C(=O)NCc3ccc(F)cc3)c(O)c(=O)n2C)o1 [RAL, Raltegravir, reference compound] = < 10 µM
• O=C(CCCCCNc1ccc([N+](=O)[O-])c2nonc12)ON1C(=O)CCC1=O = > 350 µM

Now let's try a different one.
Field IC50 (system: Prototype Foamy Virus (PFV) integrase (Human spumaretrovirus, UniProt P14350)) for entry Cn1ncnc2c(=O)n(C)c(=O)nc1-2 = > 1000 µM

* * *

- TESTED SYSTEM: HIV IN (Wild-type monomer) (Human immunodeficiency virus type 1 group M subtype B, UniProt P04585)
- Construct: 1 uM HIV IN (Wild-type monomer)
- Format: biochemical, HIV-1
- MEASUREMENT SETUP: Table 5, single-end integration; read-out: Single End IC50
Assignment: determine reported pIC50 for the given molecules.
Answers are plain numbers, as −log10 of the molar value.

• Cn1ncnc2c(=O)n(C)c(=O)nc1-2 [Formula I-1] = 5.90

Now let's try a different one.
Record O=C(CCCCCNc1ccc([N+](=O)[O-])c2nonc12)ON1C(=O)CCC1=O [II-4] . Reported pIC50: 4.15

* * *

- TESTED SYSTEM: Avian Sarcoma Virus integrase (UniProt P03354)
- PROTOCOL: Specificity: single end and concerted integration in vitro, ASV integrase
- Assay type: biochemical
- MEASUREMENT SETUP: Table 6; read-out: ASV Single End IC50
RECORDED ENDPOINT: IC50 (µM)
Give bare numbers, in µM.

• Cc1nnc(C(=O)NC(C)(C)c2nc(C(=O)NCc3ccc(F)cc3)c(O)c(=O)n2C)o1 [RAL, Raltegravir, reference compound] = 22

Field IC50 (system: Avian Sarcoma Virus integrase (UniProt P03354)) for entry O=C(CCCCCNc1ccc([N+](=O)[O-])c2nonc12)ON1C(=O)CCC1=O = 175

* * *

Assignment: determine reported pIC50 for the given compounds.
- TESTED SYSTEM: HIV IN (Wild-type monomer) (Human immunodeficiency virus type 1 group M subtype B, UniProt P04585)
- Construct: 1 uM HIV IN (Wild-type monomer)
- Format: biochemical, HIV-1
- MEASUREMENT SETUP: Table 5, concerted integration; read-out: Concerted IC50
Answers are plain numbers, as −log10 of the molar value.

- O=C(CCCCCNc1ccc([N+](=O)[O-])c2nonc12)ON1C(=O)CCC1=O: 4.80

Now let's try a different one.
Record Cn1ncnc2c(=O)n(C)c(=O)nc1-2 . Reported pIC50: 6.70
